# assaySummary: chemical genetic growth profiling, strain panel (AID 1159580);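 note: tested at 20 µM; growth read once vehicle control cultures reached saturation at 30 °C; 1 = growth at the plate median or of vehicle wells; lower values mean less growth of the strain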
# experimentalSetup: S. cerevisiae deletion strains, growth OD, locus YPL051W, strain arl3
Among all 5,500 compounds or so, about 2,000 (36%) were called active. Inconclusive results (about 18%) are left out. Cut-off read from the data, not from the text of the source: active = normalized growth mostly below about 0.91 (no sharp cut-off); inconclusive = no clear call, values can overlap the other calls; inactive = mostly above about 0.92. The list shows a part of the results.
# output must be one of 1 (yes) for active, 0 (no) for inactive

Cc1cc(NC(=O)C2=C(O)c3ccccc3S(=O)(=O)N2C)no1 : 0 (no)
C=C1C(=O)O[C@@H]2C[C@@]3(C)CCC[C@H](C)C3=C[C@H]12 : 1 (yes)
COC(=O)C[C@H]1C(C)(C)C(=O)[C@@H]2CC3=C(CC[C@]4(C)C3=CC(=O)O[C@H]4c3ccoc3)[C@@]1(C)C2=O : 0 (no)
CCCC(=O)O[C@]1(C(=O)CO)CCC2[C@@H]3CCC4=CC(=O)CC[C@]4(C)C3[C@@H](O)C[C@@]21C (some centres undefined) : 0 (no)

Task: What classification did "CN1C(C(=O)Nc2ccccn2)=C(O)c2ccccc2S1(=O)=O" end up with in this test?
Result: 0 (no)

Task: How was CO[C@@]1(NC(=O)CSCC#N)C(=O)N2C(C(=O)O)=C(CSc3nnnn3C)CSC21 (some centres undefined) classified in this test?
Result: 0 (no)

Task: For this compound, state the assay outcome: COc1cc2c(cc1OC)C1Cc3ccc(OC)c(OC)c3CN1CC2 (centres undefined)
Result: 0 (no)

Task: Could you please tell me the result logged for "CCOC(=O)[C@H](CCc1ccccc1)N[C@@H](C)C(=O)N1[C@H](C(=O)O)C[C@@H]2CCC[C@@H]21" in this assay?
Result: 0 (no)

Task: Hi team, can someone confirm the assay call for O=C(C1CCCCC1)N1CC(=O)N2CCc3ccccc3C2C1 (centres undefined) ?
Result: 0 (no)

---

# assaySummary: chemical genetic growth profiling, strain panel (AID 1159580)
# experimentalSetup: S. cerevisiae deletion strains, growth OD, locus YJL166W, strain qcr8, hits give low values
Out of some 5,500 compounds screened, about 2,000 (36%) were called active. Another 18% or so got no clear call; they are omitted. The list shows a part of the results.
Provide the reported normalized growth of each item.

CC1(C)NC(=O)N(c2ccc([N+](=O)[O-])c(C(F)(F)F)c2)C1=O : 0.986 (inactive)

Batch of 3 molecules: report normalized growth for each.
1. C=C1CCC2C(CC2(C)C)C(=O)CCC1O (centres undefined)
2. C#CCCCCCCCCCCCC(O)CC(O)COC(C)=O (centres undefined)
3. CC(C)NNC(=O)c1ccncc1

Result:
["0.993 (inactive)", "0.283 (active)", "1.01 (inactive)"]

Would you mind giving normalized growth for every molecule in the list below?
1. COC(=O)C(C)c1ccc(C(=O)c2cccs2)cc1 (centres undefined)
2. NC(N)=NS(=O)(=O)c1ccc(N)cc1
3. CCNC(=O)CC[C@H](N)C(=O)O
4. Cc1cccc(Nc2ccccc2C(=O)O)c1C
5. CC[C@H](C)C(=O)O[C@H]1CCC=C2C=C[C@H](C)C(CCC3C[C@@H](O)CC(=O)O3)[C@H]21 (some centres undefined)

Result:
1. 1 (inactive)
2. 0.98 (inactive)
3. 1 (inactive)
4. 0.929 (inactive)
5. 1.02 (inactive)

Return reported normalized growth values for all items listed beneath this line.
1. COc1cc2occ(-c3ccccc3)c(=O)c2c(OC)c1C
2. C[N+]1(C)C2CC(OC(=O)[C@@H](CO)c3ccccc3)CC1C1OC12 (some centres undefined)
3. CC(=O)Oc1c(C)cccc1C(=O)O

Result:
1. 0.975 (inactive)
2. 0.959 (inactive)
3. 1 (inactive)

---

# assaySummary: chemical genetic growth profiling, strain panel (AID 1159580)
# experimentalSetup: S. cerevisiae deletion strains, growth OD, locus YJL164C, strain tpk1
Out of some 5,500 compounds screened, about 2,000 (36%) were called active. Inconclusive results (about 18%) are left out. Cut-off read from the data, not from the text of the source: active = normalized growth mostly below about 0.91 (no sharp cut-off); inconclusive = no clear call, values can overlap the other calls; inactive = mostly above about 0.92. Some of the results follow.
Use one of these outcomes when replying: Y (active), N (inactive)

Consider the following illustrative entries.
COc1cc(OC)c2c(=O)c(-c3ccccc3)coc2c1 : N
COc1ccc([C@H]2Oc3cc(OC)cc(OC)c3C[C@H]2O)cc1 : N
COc1cc([C@@H]2c3cc4c(c(O)c3C[C@H]3COC(=O)[C@@H]32)OCO4)cc(OC)c1OC : N

Task: What was the test verdict on "COc1cc(-c2coc3cc(OC)c(OC)c(OC)c3c2=O)cc(OC)c1OC" ?
Result: N

Task: Please share the test call associated with C#CCCCCCCCCCCCC(=O)CC(O)COC(C)=O (stereo not given) .
Result: N

---

# assaySummary: chemical genetic growth profiling, strain panel (AID 1159580)
# experimentalSetup: S. cerevisiae deletion strains, growth OD, locus YLR418C, strain cdc73
The whole screen tested about 5,500 compounds, of which about 2,000 (36%) were called active. Inconclusive results (about 18%) are left out. Rule as the data show it: active = normalized growth mostly below about 0.91 (no sharp cut-off); inconclusive = no clear call, values can overlap the other calls; inactive = mostly above about 0.92. This is one part of the list.
In this exercise, the only acceptable responses are active, inactive

Look over these answered cases.
CC(=O)OCC[C@H](C)CCC=C(C)C : inactive
CC(=O)OCC(COC(C)=O)OC(C)=O : inactive
Cc1cc(-c2ccccc2)nnc1NCCN1CCOCC1 : inactive

Task: Record request — test call for CC(=O)OCC(OC(C)=O)C(OC(C)=O)C(OC(C)=O)C(OC(C)=O)C(COC(C)=O)OC(C)=O (configuration not stated)
Result: inactive

Task: Record request — test call for C#CCCCCCCCCCCCC(O)CC(O)CO (configuration not stated)
Result: inactive

Task: Which result was noted for this compound in the test: NC(CO)C(=O)NNCc1ccc(O)c(O)c1O (configuration not stated)
Result: inactive

Task: // return assay outcome for C#CCCCCCCCCCCCC(=O)CC(O)COC(C)=O (configuration not stated)
Result: active

---

# assaySummary: chemical genetic growth profiling, strain panel (AID 1159580);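 note: tested at 20 µM; growth read once vehicle control cultures reached saturation at 30 °C; 1 = growth at the plate median or of vehicle wells; lower values mean less growth of the strain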
# experimentalSetup: S. cerevisiae deletion strains, growth OD, locus YAR019C, strain CDC15, hits give low values
The whole screen tested about 5,500 compounds, of which about 2,000 (36%) were called active. Not shown: some 18% with an inconclusive outcome. This is one part of the list.
metric: normalized growth
One number for each entry.

Take a look at these entries with their results.
Cc1ccc(NC(=O)c2ccccc2N=Cc2cc(Cl)cc(Cl)c2O)c(N=Cc2cc(Cl)cc(Cl)c2O)c1 : 0.926
O=[N+]([O-])c1ccc2oc(C(O)c3ccc(-c4ccccc4)cc3)cc2c1 (stereo not drawn) : 0.989

Now take the following compound into account.
Task: Quickly give me recorded normalized growth for "CC(=O)Nc1ccc(S(=O)(=O)Nc2ccccc2Oc2ccc(Cl)cc2Cl)cc1"
Result: 0.998

---

# assaySummary: chemical genetic growth profiling, strain panel (AID 1159580);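 note: tested at 20 µM; growth read once vehicle control cultures reached saturation at 30 °C; 1 = growth at the plate median or of vehicle wells; lower values mean less growth of the strain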
# experimentalSetup: S. cerevisiae deletion strains, growth OD, locus YLR113W, strain HOG1, hits give low values
Hit rate of the full screen: of about 5,500 compounds, about 2,000 (36%) were called active. Another 18% or so got no clear call; they are omitted. The list shows a part of the results.
For each record, write down the corresponding normalized growth.
Answers are plain numbers.

The following molecules have reported results that may help.
CC(C)c1c(CN(C)C(C)Cc2ccccc2)n(C)n(-c2ccccc2)c1=O (stereo not given) : 1.01
CC(=O)Nc1ccc(S(=O)(=O)Nc2ccccc2Oc2ccc(Cl)cc2Cl)cc1 : 0.959
C=C1C(=O)O[C@@H]2C3O[C@]3(C)CC/C=C(\C)CC[C@@H]12 (stereo not given in full) : 0.932
Cc1ccc(NS(=O)(=O)c2ccc(Cl)cc2)c(N=Cc2cc(Cl)cc(Cl)c2O)c1 : 0.3
CCNC(=O)CC[C@H](N)C(=O)O : 1.02

Hey, quick one: what's normalized growth for each of these?
1. CCC(C)C(=O)O[C@H]1C[C@H](O)C=C2C=C[C@H](C)[C@H](CC[C@@H](O)C[C@@H](O)CC(=O)O)C21 (stereo not given in full)
2. CCOC(=O)[C@H](CCc1ccccc1)N[C@@H](C)C(=O)N1[C@H](C(=O)O)C[C@@H]2CCC[C@@H]21
3. Cc1cc(-c2ccccc2)nnc1NCCN1CCOCC1
4. NC(N)=NS(=O)(=O)c1ccc(N)cc1
5. FC(F)(F)c1ccnc(N2CCCN(C(=S)Nc3ccc(Cl)cc3Cl)CC2)n1

Result:
[1, 0.98, 0.964, 0.967, 0.689]

---

Kindly state normalized growth for each of the entries shown.
# assaySummary: chemical genetic growth profiling, strain panel (AID 1159580);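 note: tested at 20 µM; growth read once vehicle control cultures reached saturation at 30 °C; 1 = growth at the plate median or of vehicle wells; lower values mean less growth of the strain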
# experimentalSetup: S. cerevisiae deletion strains, growth OD, locus YMR263W, strain SAP30, hits give low values
Out of some 5,500 compounds screened, about 2,000 (36%) were called active. Roughly 18% stayed inconclusive and do not appear here. This is one part of the list.
Give bare numbers.

The examples below pair each entry with its known result.
Clc1cccc(Cl)c1NC1=NCCN1 : 0.988
CC(=O)OC1CCC2(C)C(=CC=C3C2CCC2(C)C3CCC2C(C)/C=C/C(C)C(C)C)C1(C)C (centres undefined) : 1.03
c1ccc(-c2cc3c(nn2)CCc2nonc2-3)cc1 : 0.958
O=C1CC2OCC=C3CN4CC[C@]56c7ccccc7N1C5[C@H]2[C@H]3CC46 (some centres undefined) : 1.01
CC(=O)c1ccc(-c2cccs2)s1 : 1

// each molecule listed below needs its normalized growth
1. c1ccc(-c2cc3c(ccc4nonc43)nn2)cc1
2. OCc1ccccc1O
3. CC(C)NCC(O)COc1cccc2ccccc12 (centres undefined)
4. C[C@@H](CN1CCC(Cc2ccccc2)CC1)[C@@H](O)c1ccc(O)cc1

Result:
0.923
1.02
1
1

I need normalized growth for every entry listed below, if you could help.
1. CC1(C)NC(=O)N(c2ccc([N+](=O)[O-])c(C(F)(F)F)c2)C1=O
2. C=CCSCC1Nc2cc(Cl)c(S(N)(=O)=O)cc2S(=O)(=O)N1 (centres undefined)
3. O=C(CSCc1cccc2ccccc12)NNC(=O)c1ccc(F)cc1

Result:
1. 1
2. 1.02
3. 0.984

Field: normalized growth. Fill in for each record below.
1. O=C1[C@H](CCC(O)c2ccc(F)cc2)[C@@H](c2ccc(O)cc2)N1c1ccc(F)cc1 (some centres undefined)
2. COC(=O)C1C2CC3c4[nH]c5cc(OC)ccc5c4CCN3CC2CC(OC(=O)c2cc(OC)c(OC)c(OC)c2)C1OC (centres undefined)

Result:
1. 0.997
2. 1
